System: Ctenocephalides felis
testDetails: Ctenocephalides felis oral test
Assay type: in vivo
experimentalContext: application rate 100 ppm in citrated cattle blood; after 2 days
resultType: efficacy (kill in %)
A complete answer gives the number and then names the unit.

q: Report efficacy (kill in %) for `Cc1cc(C(=O)Nc2cc(-c3cnn(-c4c(C(F)(F)F)c(C(F)(F)C(F)(F)F)nn4C)c3)ccc2F)ccc1F` please.
a: 100%

q: Repeat for the following compound: `Cn1nc(C(F)(F)C(F)(F)F)c(C(F)(F)F)c1-n1cc(-c2ccc(F)c(NC(=O)Cc3cccc(F)c3)c2)cn1`
a: 100%

q: Same read-out for `Cn1nc(C(F)(F)C(F)(F)F)c(C(F)(F)F)c1-n1cc(-c2cccc(NC(=O)C(F)(F)C(F)F)c2)cn1` ?
a: 100%

###

System: Ctenocephalides felis
testDetails: Ctenocephalides felis oral test
Type: in vivo
experimentalContext: application rate 100 ppm in citrated cattle blood; after 2 days
efficacy (kill in %) reference
Report the value in % with no unit label.

Field: example entries. Status: answers known.
>>> print(df.to_string())
                                   compound  reading
0  Cn1nc(C(F)(F)C(F)(F)F)c(C(F)(F)F)c1-n1cc(-c2cccc(NC(=O)C3(C#N)CC3)c2)cn1      100
1  COc1ccc(C(=O)Nc2cc(-c3cnn(-c4c(C(F)(F)F)c(C(F)(F)C(F)(F)F)nn4C)c3)ccc2F)cc1F      100

q: What is its efficacy (kill in %) for Ctenocephalides felis? Entry: `CN(C(=O)c1ccc(F)cc1)c1cc(-c2cnn(-c3c(C(F)(F)F)c(C(F)(F)C(F)(F)F)nn3C)c2)ccc1F`
a: 100

q: What do we get for `Cn1cc(C(=O)Nc2cc(-c3cnn(-c4c(C(F)(F)F)c(C(F)(F)C(F)(F)F)nn4C)c3)ccc2F)cn1` ?
a: 100

q: // next record CCC(C)C(=O)Nc1cc(-c2cnn(-c3c(C(F)(F)F)c(C(F)(F)C(F)(F)F)nn3C)c2)ccc1F (racemic)
a: 90

q: Cool, now `Cn1nc(C(F)(F)C(F)(F)F)c(C(F)(F)F)c1-n1cc(-c2ccc(F)c(NC(=O)c3ccncn3)c2)cn1`
a: 100

Source: patent US10273226B2
